Target: WRN C727 (Homo sapiens, UniProt Q14191)
Construct: endogenous in cells; host or cells: OCI-AML2
Sequence (Q14191 whole entry): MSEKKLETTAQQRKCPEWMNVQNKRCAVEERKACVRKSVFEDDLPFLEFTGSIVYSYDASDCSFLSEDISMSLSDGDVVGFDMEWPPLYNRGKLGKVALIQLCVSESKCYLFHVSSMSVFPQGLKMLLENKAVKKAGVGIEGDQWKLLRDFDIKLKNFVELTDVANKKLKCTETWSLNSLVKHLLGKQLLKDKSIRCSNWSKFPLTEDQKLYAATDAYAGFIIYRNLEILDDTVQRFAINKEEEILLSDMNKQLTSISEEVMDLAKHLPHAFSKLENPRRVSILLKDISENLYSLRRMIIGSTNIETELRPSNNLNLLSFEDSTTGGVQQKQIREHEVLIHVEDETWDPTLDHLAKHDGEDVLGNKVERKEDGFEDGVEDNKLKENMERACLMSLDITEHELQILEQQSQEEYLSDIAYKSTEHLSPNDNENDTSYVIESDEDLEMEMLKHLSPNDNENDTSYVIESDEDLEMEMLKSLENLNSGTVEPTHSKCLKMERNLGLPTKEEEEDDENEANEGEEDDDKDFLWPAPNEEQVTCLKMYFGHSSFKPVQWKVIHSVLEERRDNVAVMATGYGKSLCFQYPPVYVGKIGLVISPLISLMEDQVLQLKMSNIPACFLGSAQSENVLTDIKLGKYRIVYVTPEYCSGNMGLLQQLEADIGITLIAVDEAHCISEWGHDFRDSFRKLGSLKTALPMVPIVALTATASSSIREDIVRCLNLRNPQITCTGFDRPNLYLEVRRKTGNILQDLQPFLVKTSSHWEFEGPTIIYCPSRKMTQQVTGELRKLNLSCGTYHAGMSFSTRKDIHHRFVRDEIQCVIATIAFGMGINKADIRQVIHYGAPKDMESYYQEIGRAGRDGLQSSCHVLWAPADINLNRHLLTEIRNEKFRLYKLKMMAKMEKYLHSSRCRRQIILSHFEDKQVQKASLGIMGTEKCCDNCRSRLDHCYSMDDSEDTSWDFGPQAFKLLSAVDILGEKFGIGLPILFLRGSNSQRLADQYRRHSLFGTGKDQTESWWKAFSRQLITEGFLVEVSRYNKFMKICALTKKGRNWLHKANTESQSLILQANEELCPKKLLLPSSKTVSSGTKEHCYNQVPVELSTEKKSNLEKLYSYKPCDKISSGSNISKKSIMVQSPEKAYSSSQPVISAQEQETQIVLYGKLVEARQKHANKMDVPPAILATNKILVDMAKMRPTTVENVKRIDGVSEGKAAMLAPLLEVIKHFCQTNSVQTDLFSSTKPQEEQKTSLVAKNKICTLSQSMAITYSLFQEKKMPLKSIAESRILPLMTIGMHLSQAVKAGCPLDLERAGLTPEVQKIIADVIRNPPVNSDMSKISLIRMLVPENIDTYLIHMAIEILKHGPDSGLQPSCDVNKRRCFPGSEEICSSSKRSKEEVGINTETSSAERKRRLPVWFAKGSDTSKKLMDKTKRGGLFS
Test: Target engagement, in situ (cell), OCI-AML2
Assay type: cell-based
Settings: OCI-AML2 cells, read-out: OCI-AML2 WRN C727 TE50 in situ (cell)
Measured IC50, listed per entry.
Write down the numeric answer in nM and omit the unit.

See these solved cases before continuing.
| COMPOUND | ENDPOINT_UNIT | IC50 |
| --- | --- | --- |
| CS(=O)(=O)/C=C/CNC(=O)c1cnc(C2CC2)nc1Oc1ccccc1 [Example 17] | nM | 5990 |
| CC(C)c1ncc(C(=O)NC/C=C/S(C)(=O)=O)c(Oc2ccccc2)n1 [Example 14] | nM | 2090 |
| CS(=O)(=O)/C=C/CNC(=O)c1cnc(N2CCCC2)nc1Oc1ccccc1 [Example 167] | nM | 7080 |

Query: IC50; subject: CS(=O)(=O)/C=C/[C@@H](NC(=O)c1cnc(C2(C(F)(F)F)CC2)nc1Oc1ccccc1)C1CC1 [Example 102]
160

// lookup IC50 for CC(C)(C)c1ncc(C(=O)NC/C=C/S(C)(=O)=O)c(Oc2ccccc2)n1 [Example 56]
430

Which value of IC50 has been reported for CC(C)(C)c1ncc(C(=O)N2CC(=CS(C)(=O)=O)C2)c(Oc2ccccc2)n1 [Example 189] in the records?
100

###

Target: hWRN(519-1227)_C-H3CV-GFP-10His (Homo sapiens, UniProt Q14191)
Sequence (Q14191 519-1227): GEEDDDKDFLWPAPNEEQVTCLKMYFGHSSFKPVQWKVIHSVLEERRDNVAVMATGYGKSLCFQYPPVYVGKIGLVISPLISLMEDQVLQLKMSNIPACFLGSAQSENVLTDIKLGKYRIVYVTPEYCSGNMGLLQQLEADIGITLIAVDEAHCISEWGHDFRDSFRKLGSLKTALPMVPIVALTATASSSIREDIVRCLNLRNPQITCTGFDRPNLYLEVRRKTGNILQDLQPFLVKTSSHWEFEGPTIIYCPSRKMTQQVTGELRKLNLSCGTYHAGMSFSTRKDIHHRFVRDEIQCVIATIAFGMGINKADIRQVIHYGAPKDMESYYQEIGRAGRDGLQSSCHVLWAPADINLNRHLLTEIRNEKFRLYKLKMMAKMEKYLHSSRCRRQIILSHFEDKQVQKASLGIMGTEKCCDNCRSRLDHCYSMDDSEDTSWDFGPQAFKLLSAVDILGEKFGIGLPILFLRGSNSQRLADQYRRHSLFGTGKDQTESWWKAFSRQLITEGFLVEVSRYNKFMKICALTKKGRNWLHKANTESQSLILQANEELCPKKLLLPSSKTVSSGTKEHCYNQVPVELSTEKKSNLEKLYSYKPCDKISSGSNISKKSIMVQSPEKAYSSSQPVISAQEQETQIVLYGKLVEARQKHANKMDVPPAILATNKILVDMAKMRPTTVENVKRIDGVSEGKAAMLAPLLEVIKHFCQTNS
Test: Helicase Assay for WRN Inhibition (ATP-dependent, fluorescence based)
Settings: WRN Helicase IC50, 30 min preincubation with ATP, 30 min reaction
ENDPOINT_LABEL: IC50
Dear colleague, please send the value followed by its unit.

Need IC50 of C[C@@H](/C=C/S(=O)(=O)C1CC1)NC(=O)c1cnc(C2CC2)nc1Oc1ccccc1 [Example 25] , thanks.
12000 nM

What does the record list as IC50 for CN(c1ncc(C(=O)N[C@H](/C=C/S(C)(=O)=O)C2CC2)c(Oc2ccccc2)n1)C1CC1 [Example 180] ?
439 nM

Using the record for CS(=O)(=O)/C=C/[C@@H](NC(=O)c1cc(F)c(C(F)(F)C2CC2)nc1Oc1ccccc1)C1CC1 [Example 236] , report its IC50.
42 nM

For the compound CC(C)(C)c1ncc(C(=O)N[C@H](/C=C\S(C)(=O)=O)Cc2ccccc2)c(Oc2ccccc2)n1 (single isomer, unassigned) [Example 61] , what IC50 is on record?
3500 nM

###

Listed here are compounds together with their documented pIC50.
Target: WRN C727 (Homo sapiens, UniProt Q14191)
Construct: endogenous in cells; host or cells: OCI-AML2
Assay: Target engagement, in situ (cell), OCI-AML2
Assay type: cell-based
Details: OCI-AML2 cells, read-out: OCI-AML2 WRN C727 TE50 in situ (cell)
Entry type: numeric. Quantity: pIC50, the -log10 of concentration in molar units.

| CHEMICAL_SMILES | STUDY_TARGET | ENDPOINT_LABEL | ASSAY_VALUE |
| --- | --- | --- | --- |
| C[C@@H](/C=C/S(C)(=O)=O)NC(=O)c1cnc(C2CC2)nc1Oc1ccccc1 | WRN C727 (Homo sapiens, UniProt Q14191) | pIC50 | 5.82 |
| CCOc1cc(C2CCCC2)ccc1C(=O)NC/C=C/S(C)(=O)=O | WRN C727 (Homo sapiens, UniProt Q14191) | pIC50 | 4.67 |
| C[C@@H](/C=C/S(C)(=O)=O)NC(=O)c1cnc(C2CCCC2)nc1Oc1cc(F)cc(F)c1 | WRN C727 (Homo sapiens, UniProt Q14191) | pIC50 | 5.82 |

Then this compound:
So what does the record say about pIC50 for CS(=O)(=O)/C=C/[C@@H](NC(=O)c1cnc(C(F)(F)C2CC2)nc1Oc1ccccc1)C1CC1 ?
8.06

Just for reference, patent US20250188040A1 is where these values come from.
